- target system: T1, full-length mouse SNX27 (mouse, UniProt Q3UHD6 1-539)
- T1 construct: sorting nexin-27 (SNX27), mouse, full length; pMCSG7 vector by ligation-independent cloning; also called mSNX27FL
- assay text: ITC; 800 μM hSNX1 or hSNX2 peptide (syringe) titrated into 20 μM mSNX27FL (cell); 25°C; 50 mM HEPES pH 7.5, 200 mM NaCl, 5% glycerol, 1 mM β-ME with 1:10 peptide buffer (100 mM Tris-HCl pH 10.6); single-site model
- run conditions: both partners purified
Below, each entry is listed with its recorded pKd.
Quick note: pKd means taking -log10 of the concentration in moles per liter.

Reference set (2 entries):
{"binder": "NGIHEEQDQEPQDLFADA (sorting nexin-1 (SNX1), human, residues 75 to 92; also called hSNX1 75-92; SNX1_(75-92); source: synthetic peptide (Genscript)) [human SNX1 peptide, residues 75-92 (second aDLF motif)]", "pKd": 4.87}
{"binder": "EAGDSDTEGEDIFTGAA (sorting nexin-1 (SNX1), human, residues 35 to 51; also called hSNX1 35-51; SNX1_(35-51); source: synthetic peptide (Genscript)) [human SNX1 peptide, residues 35-51 (first aDLF motif)]", "pKd": 4.48}

Moving on to another binder below.
-- ask // returns reported pKd for input TEVVLDDDREDLFAEATEEVS (sorting nexin-2 (SNX2), human, residues 62 to 82; also called hSNX2 62-82; SNX2_(62-82); source: synthetic peptide (Genscript)) [human SNX2 peptide, residues 62-82 (second aDLF motif)]
-- reply 4.65
